Reference source for all entries: paper PMC4347663

assay: IV and oral DMPK cassette dose experiment; assay type: in vivo, C57Bl/6 mice; conditions: male, C57Bl/6, mouse, plasma, po, 1 mg/kg
Tmax values for the compounds below.
OBSERVED PROPERTY: Tmax (min)

N#Cc1ccc(CN(Cc2cccnc2)Cc2ccc(F)c(F)c2)s1
15
CCOC(=O)N1CCC(CN(Cc2ccc(Cl)cc2)Cc2ccc([N+](=O)[O-])s2)C1 (centres unmarked) [Compound 3, reference compound]
30
N#Cc1ccc(CN(Cc2ccc(Cl)cc2)Cc2cccnc2)s1
15
O=[N+]([O-])c1ccc(CN(Cc2ccc(F)cc2)Cc2cccnc2)s1
15
Cc1cc(Cl)ccc1CN(Cc1ccc(Cl)cc1)Cc1ccc([N+](=O)[O-])s1
120
